- Tested on: V79MZ
- procedureDetails: Selectivity ratio of IC50 for human CYP11B1 expressed in hamster V79MZ cells to IC50 for human CYP11B2 expressed in hamster V79MZ cells
- Assay type: cell-based
What Ratio IC50 was measured for each of the following?
Give bare numbers.

N#Cc1cccc([S+]([O-])c2c(O)c(-c3cccnc3)cc3ccccc23)c1 (stereo unspecified); 186
[O-][S+](c1cc(C(F)(F)F)cc(C(F)(F)F)c1)c1c(O)c(-c2cccnc2)cc2ccccc12 (stereo unspecified); 283
[O-][S+](c1cccc(F)c1)c1c(O)c(-c2cccnc2)cc2ccccc12 (stereo unspecified); 168
COc1ccc([S+]([O-])c2c(O)c(-c3cccnc3)cc3ccccc23)cc1 (stereo unspecified); 87
[O-][S+](c1ccc(C(F)(F)F)cc1)c1c(O)c(-c2cccnc2)cc2ccccc12 (stereo unspecified); 248

Please supply Ratio IC50 for each of the following items, keeping them in order.
1. [O-][S+](c1cc(Cl)cc(Cl)c1)c1c(O)c(-c2cccnc2)cc2ccccc12 (stereo unspecified)
2. [O-][S+](c1cccc(C(F)(F)F)c1)c1c(O)c(-c2cccnc2)cc2ccccc12 (stereo unspecified)
3. [O-][S+](c1ccc(Cl)cc1)c1c(O)c(-c2cccnc2)cc2ccccc12 (stereo unspecified)
4. [O-][S+](c1ccccc1Cl)c1c(O)c(-c2cccnc2)cc2ccccc12 (stereo unspecified)

Marked response:
1: 100; 2: 155; 3: 407; 4: 204

Report Ratio IC50 for each item below.
1. [O-][S+](c1ccccc1OC(F)(F)F)c1c(O)c(-c2cccnc2)cc2ccccc12 (stereo unspecified)
2. [O-][S+](c1ccc(Cl)c(Cl)c1)c1c(O)c(-c2cccnc2)cc2ccccc12 (stereo unspecified)

Marked response:
[84, 253]

Provide Ratio IC50 for all items below, preserving their order.
1. [O-][S+](c1cccc(Cl)c1)c1c(O)c(-c2cccnc2)cc2ccccc12 (stereo unspecified)
2. [O-][S+](c1cccs1)c1c(O)c(-c2cccnc2)cc2ccccc12 (stereo unspecified)
3. [O-][S+](c1cccc(OC(F)(F)F)c1)c1c(O)c(-c2cccnc2)cc2ccccc12 (stereo unspecified)
4. [O-][S+](c1ccc(F)cc1)c1c(O)c(-c2cccnc2)cc2ccccc12 (stereo unspecified)
5. COc1ccccc1[S+]([O-])c1c(O)c(-c2cccnc2)cc2ccccc12 (stereo unspecified)
6. [O-][S+](c1ccc(F)c(Cl)c1)c1c(O)c(-c2cccnc2)cc2ccccc12 (stereo unspecified)
7. COc1cccc([S+]([O-])c2c(O)c(-c3cccnc3)cc3ccccc23)c1 (stereo unspecified)

Marked response:
[80, 32, 415, 168, 17, 123, 271]

Parameters: items (list). Returns: Ratio IC50 for each item.
1. [O-][S+](c1ccccc1C(F)(F)F)c1c(O)c(-c2cccnc2)cc2ccccc12 (stereo unspecified)
2. [O-][S+](c1ccc(OC(F)(F)F)cc1)c1c(O)c(-c2cccnc2)cc2ccccc12 (stereo unspecified)
3. [O-][S+](c1ccccc1)c1c(O)c(-c2cccnc2)cc2ccccc12 (stereo unspecified)

Marked response:
1. 96
2. 232
3. 203
